System: L1210
protocol: Cytotoxicity against mouse L1210 cells after 2 days
Format: functional, cell-based
reported_conditions: L1210, 48 h
Parameter: pIC50. Scope: all listed entries.
Reminder that pIC50 means the negative base-10 logarithm of the concentration expressed in mol/L.

smiles_record	experimental_system	pIC50
CC(C)(C)[Si](C)(C)OC[C@H]1O[C@H]2Oc3nc(=O)c4c(n3[C@H]2[C@@H]1O[Si](C)(C)C(C)(C)C)CCCC4	L1210	3.64

Let me know recorded pIC50 for Nc1ccn([C@@H]2O[C@H](CO)[C@@H](O)[C@@H]2O)c(=O)n1 , thanks.
7.62

Let me know recorded pIC50 for C/C(N)=C1/C=NC(=O)N([C@@H]2O[C@H](CO)[C@@H](O)[C@@H]2O)C1=O , thanks.
3.68

Let me know recorded pIC50 for CN(C)/C=N\C1=N[C@@H]2[C@H](O1)O[C@H](CO[Si](C)(C)C(C)(C)C)[C@H]2O[Si](C)(C)C(C)(C)C , thanks.
3.60

Let me know recorded pIC50 for CC(=O)c1cnc2n(c1=O)[C@@H]1[C@H](O2)O[C@H](CO)[C@H]1O , thanks.
3.51

Let me know recorded pIC50 for CC(=O)c1cnc2n(c1=O)[C@@H]1[C@H](O2)O[C@H](CO[Si](C)(C)C(C)(C)C)[C@H]1O[Si](C)(C)C(C)(C)C , thanks.
5.22

Let me know recorded pIC50 for CC(C)(C)[Si](C)(C)OC[C@H]1O[C@H]2Oc3nc4c(c(=O)n3[C@H]2[C@@H]1O[Si](C)(C)C(C)(C)C)CCCC4 , thanks.
3.70

Hey, just so you know, these numbers are from ChEMBL document CHEMBL1153735.
